- assay target: mouse mAsbt (Mus musculus, UniProt P70172)
- Sequence (P70172 whole entry): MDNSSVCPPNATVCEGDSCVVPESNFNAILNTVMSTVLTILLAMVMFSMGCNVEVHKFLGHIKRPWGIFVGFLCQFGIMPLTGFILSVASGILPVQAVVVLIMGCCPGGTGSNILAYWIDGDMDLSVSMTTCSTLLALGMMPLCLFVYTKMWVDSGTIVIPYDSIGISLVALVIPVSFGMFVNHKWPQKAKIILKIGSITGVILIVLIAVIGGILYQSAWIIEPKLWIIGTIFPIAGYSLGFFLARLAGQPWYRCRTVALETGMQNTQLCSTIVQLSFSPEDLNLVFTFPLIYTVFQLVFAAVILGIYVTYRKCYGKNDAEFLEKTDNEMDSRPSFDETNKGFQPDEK
- assay name: Quantitative uptake of 3-NBD-BA in carrier-expressing HEK293 cells (fluorescence reader)
- Assay type: cell-based
- Parameters: stably transfected with the full open reading frames of human NTCP, ASBT, SOAT, OATP1B1, and OATP1B3 as well as mouse mNtcp and mAsbt; expressed in transfected cells
- condition info: mAsbt-HEK293, 25 μM, 37 °C, +Na+ vs -Na+
Each entry below carries its reported Specific transport ratio mAsbt (25µM/10 min uptake).
quantity name: Specific transport ratio mAsbt (25µM/10 min uptake) (x x-fold)

compound: C[C@H](CCC(=O)NCCS(=O)(=O)[O-])[C@H]1CC[C@H]2[C@@H]3[C@H](O)C[C@@H]4C[C@H](Nc5ccc([N+](=O)[O-])c6nonc56)CC[C@]4(C)[C@H]3C[C@H](O)[C@]12C.[Na+] [14d]
assay target: mouse mAsbt (Mus musculus, UniProt P70172)
result value: 14
//
compound: C[C@H](CCC(=O)NCC(=O)O)[C@H]1CC[C@H]2[C@@H]3[C@H](O)C[C@@H]4C[C@@H](Nc5ccc([N+](=O)[O-])c6nonc56)CC[C@]4(C)[C@H]3C[C@H](O)[C@]12C [16a]
assay target: mouse mAsbt (Mus musculus, UniProt P70172)
result value: 5
//
compound: C[C@H](CCC(=O)NCCS(=O)(=O)[O-])[C@H]1CC[C@H]2[C@@H]3[C@H](O)C[C@@H]4C[C@@H](Nc5ccc([N+](=O)[O-])c6nonc56)CC[C@]4(C)[C@H]3C[C@H](O)[C@]12C.[Na+] [14a]
assay target: mouse mAsbt (Mus musculus, UniProt P70172)
result value: 18
//
compound: C[C@H](CCC(=O)NCC(=O)O)[C@H]1CC[C@H]2[C@@H]3[C@H](O)C[C@@H]4C[C@H](Nc5ccc([N+](=O)[O-])c6nonc56)CC[C@]4(C)[C@H]3C[C@H](O)[C@]12C [16d]
assay target: mouse mAsbt (Mus musculus, UniProt P70172)
result value: 39

Measured values drawn from paper PMC12169615 for this set.
